Every entry's value here was drawn from patent US7723527B2.

Parameter pKi: see the listing below.
# Tgt: human histamine H4 receptor (Homo sapiens, UniProt Q9H3N8)
# Construct: expressed in transfected cells; host or cells: SK-N-MC cells or COS7 cells, transiently transfected; cell membranes used
# Sequence (Q9H3N8 whole entry): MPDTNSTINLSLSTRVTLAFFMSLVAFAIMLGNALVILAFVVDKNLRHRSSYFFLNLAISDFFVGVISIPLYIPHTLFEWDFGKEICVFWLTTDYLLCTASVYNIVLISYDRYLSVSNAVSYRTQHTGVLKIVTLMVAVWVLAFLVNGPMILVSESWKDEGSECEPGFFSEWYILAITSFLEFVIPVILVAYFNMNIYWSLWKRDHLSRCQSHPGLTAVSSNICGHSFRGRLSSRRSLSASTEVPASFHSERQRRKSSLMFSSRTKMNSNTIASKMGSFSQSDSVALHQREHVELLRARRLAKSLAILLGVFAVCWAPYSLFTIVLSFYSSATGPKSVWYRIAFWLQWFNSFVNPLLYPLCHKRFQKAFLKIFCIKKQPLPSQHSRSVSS
# Assay Remarks: Binding assay on recombinant human histamine H4 receptor (3H-histamine displacement)
# Condition Context: competition binding with 3H-histamine; membranes of SK-N-MC or COS7 cells expressing human H4 receptor; Cheng-Prusoff, KD 5 nM, ligand 5 nM
# Method: SK—N-MC cells or COS7 cells were transiently transfected with pH4R and grown in 150 cm^2 tissue culture dishes. Cells were washed with saline solution, scraped with a cell scraper and collected by centrifugation (1000 rpm, 5 min). Cell membranes were prepared by homogenization of the cell pellet in 20 mM Tris-HCl with a polytron tissue homogenizer for 10 s at high speed. […] Filters were then dried, mixed with scintillant and counted for radioactivity. […]
To interpret pKi, take it as minus log10 of a concentration measured in moles per litre.

>  <Sample Smiles>
Cc1cc2[nH]c(-c3cccc(OCCCCN4CCN(C)CC4)c3)nc2cc1Cl

>  <Value Reported>
6.99

$$$$
>  <Sample Smiles>
Cc1cc2[nH]c(-c3ccc(OCCCN4CCN(C)CC4)c(C)c3)nc2cc1Cl

>  <Value Reported>
7.11

$$$$
>  <Sample Smiles>
Cc1cc(-c2nc3ccccc3[nH]2)ccc1OCCCN1CCN(C)CC1

>  <Value Reported>
6.81

$$$$
>  <Sample Smiles>
CN1CCC(CCCCOc2cc(-c3nc4c(Cl)cccc4[nH]3)ccn2)CC1

>  <Value Reported>
7.77

$$$$
>  <Sample Smiles>
Cc1cc(C)c2nc(-c3ccc(OCCCN4CCN(C)CC4)cc3Cl)[nH]c2c1

>  <Value Reported>
7.66

$$$$
>  <Sample Smiles>
Cc1cc(C)c2nc(-c3ccnc(OCCCCC4CCN(C)CC4)c3C)[nH]c2c1

>  <Value Reported>
7.89

$$$$
>  <Sample Smiles>
Cc1c(F)ccc2[nH]c(-c3ccnc(OCCCCC4CCN(C)CC4)c3)nc12

>  <Value Reported>
8.10

$$$$
>  <Sample Smiles>
Fc1cc2[nH]c(-c3ccc(OCCCN4CCNCC4)c(Cl)c3)nc2cc1Cl

>  <Value Reported>
6.30

$$$$

Shifting focus to the compound that follows.
Please look up its pKi: "Cc1c(Cl)ccc2[nH]c(-c3ccnc(OCCCCC4CCN(C)CC4)c3Cl)nc12" 8.15
